molecular target: rASIC1a (Rattus norvegicus, UniProt P55926); construct: expressed in transfected cells; host or cells: Xenopus laevis oocytes injected with cRNA; test: Two-electrode voltage clamp (TEVC) on Xenopus laevis oocytes expressing homomeric rASIC1a; assay type: cell-based
Sequence (P55926 whole entry): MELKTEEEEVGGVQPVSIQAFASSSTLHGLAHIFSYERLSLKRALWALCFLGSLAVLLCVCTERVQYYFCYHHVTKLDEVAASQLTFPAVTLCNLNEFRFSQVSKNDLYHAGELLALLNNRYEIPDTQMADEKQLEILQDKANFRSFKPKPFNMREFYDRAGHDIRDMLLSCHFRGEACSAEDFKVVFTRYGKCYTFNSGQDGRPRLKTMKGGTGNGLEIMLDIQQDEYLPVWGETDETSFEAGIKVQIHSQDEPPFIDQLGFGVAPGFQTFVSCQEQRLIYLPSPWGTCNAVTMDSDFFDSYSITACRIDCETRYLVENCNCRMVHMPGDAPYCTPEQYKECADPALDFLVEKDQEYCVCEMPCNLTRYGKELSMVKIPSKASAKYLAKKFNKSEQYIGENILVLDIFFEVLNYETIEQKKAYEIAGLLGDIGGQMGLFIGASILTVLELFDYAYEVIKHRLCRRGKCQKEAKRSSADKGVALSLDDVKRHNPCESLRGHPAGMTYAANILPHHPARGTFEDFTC
Bridge positions count the residues as written; N and C are the ends.
We begin with a simple list: items and their reported pIC50.
Reminder that pIC50 means the negative base-10 logarithm of the concentration expressed in mol/L.

Consider the following illustrative entries.
INSERT INTO assay_data (sequence_text, measurement_type, measurement) VALUES
  ('SNECIRKWLSCVDRKNDCCEGLECYKRRRSFEVCVPIPGFCLVKWKQCDGRERDCCAGLECWKRSGNKSSVCAPIT (disulfide 4-19, 11-24, 18-34, 41-56, 48-61, 55-72) [Hi1a H28R]', 'pIC50', 9.94),
  ('SNECIRKWKSCVDRKNDCCEGLECYKRRHSFEVCVPIPGFCLVKWKQCDGRERDCCAGLECWKRSGNKSSVCAPIT (disulfide 4-19, 11-24, 18-34, 41-56, 48-61, 55-72) [Hi1a L8K]', 'pIC50', 9.01);

Kindly review the next sequence as well.
Record lookup: for rASIC1a (Rattus norvegicus, UniProt P55926), what pIC50 belongs to SEDCIPKWKGCVNRHGDCCEGLECWKRRRSFEVCVPKTGDCIPKWKGCVNRHGDCCEGLECWKRRRSFEVCVPKTPKT (disulfide 4-19, 11-24, 18-34, 41-56, 48-61, 55-71) [EP 2] ?
6.67

----------
Target: rASIC1a (Rattus norvegicus)
Construct: expressed in transfected cells; host or cells: Xenopus laevis oocytes injected with cRNA
Assay: Two-electrode voltage clamp (TEVC) on Xenopus laevis oocytes expressing homomeric rASIC1a
Type: cell-based
Conditions: current remaining at saturating peptide concentrations
Description: The ability of the peptides of the invention to modulate ASIC currents was assessed using two-electrode voltage clamp (TEVC) electrophysiology experiments performed on Xenopus laevis oocytes expressing homomeric ASIC channels. Xenopus oocytes are widely used as an expression system for functional characterisation of ion channel modulators. TEVC allows measurement of whole-cell ion channel currents while controlling the membrane potential. […]
Bridge positions count the residues as written; N and C are the ends.
We begin with a simple list: items and their reported % Residual Current.
Your answer should be a plain number; it is taken to be in %.

Consider the following illustrative entries.
INSERT INTO results (sequence_text, test_target, quantity_unit, measurement) VALUES
  ('SNECIRKWLSCVDRKNDCCEGLECYKRRRSFEVCVPIPGFCLVKWKQCDGRERDCCAGLECWKRSGNKSSVCAPIT (disulfide 4-19, 11-24, 18-34, 41-56, 48-61, 55-72) [Hi1a H28R]', 'rASIC1a (Rattus norvegicus)', '%', 20),
  ('SEDCIPKWKGCVNRHGDCCEGLECWKRRRSFEVCVPKTEDCIPKWKGCVNRHGDCCEGLECWKRRRSFEVCVPKTPKT (disulfide 4-19, 11-24, 18-34, 41-56, 48-61, 55-71) [EP 1]', 'rASIC1a (Rattus norvegicus)', '%', 0),
  ('SNECIRKWKSCVDRKNDCCEGLECYKRRHSFEVCVPIPGFCLVKWKQCDGRERDCCAGLECWKRSGNKSSVCAPIT (disulfide 4-19, 11-24, 18-34, 41-56, 48-61, 55-72) [Hi1a L8K]', 'rASIC1a (Rattus norvegicus)', '%', 30);

What value of % Residual Current has been recorded for this entry: SEDCIPKWKGCVNRHGDCCEGLECWKRRRSFEVCVPKTGDCIPKWKGCVNRHGDCCEGLECWKRRRSFEVCVPKTPKT (disulfide 4-19, 11-24, 18-34, 41-56, 48-61, 55-71) [EP 2]
0

What value of % Residual Current has been recorded for this entry: SNECIRKWLSCVDRKNDCCEGLECWKRRHSFEVCVPIPGFCLVKWKQCDGRERDCCAGLECWKRSGNKSSVCAPIT (disulfide 4-19, 11-24, 18-34, 41-56, 48-61, 55-72) [Hi1a Y24W]
0

What value of % Residual Current has been recorded for this entry: SNECIRKWLSCVDRKNDCCEGLECYKRRHSFEVCVPGGGGGGFCLVKWKQCDGRERDCCAGLECWKRSGNKSSVCAPIT (disulfide 4-19, 11-24, 18-34, 44-59, 51-64, 58-75) [EP 3]
80
